Experiment: in vivo
Conditions: male, Wistar, rat, iv, 24 ug/kg/hour
measureName: level at time molar

So what does the record say about level at time molar for CC[C@H](C)[C@H](NC(=O)[C@H](Cc1ccc(O)cc1)NC(=O)[C@@H](NC(=O)[C@H](CCCNC(=N)N)NC(=O)[C@@H](N)CC(=O)O)C(C)C)C(=O)N[C@@H](Cc1c[nH]cn1)C(=O)N1CCC[C@H]1C(=O)O ? ~0.918 nM
